MEASUREMENT NAME: logP

# count of solved cases: 4
>>> print(df.to_string())
                         compound  measured_result
0           C/C=C/c1ccc(O)c(OC)c1             3.04
1        CC(C)=C1CC[C@@H](C)CC1=O             3.08
2  CC1(C)[C@@H]2CC=C(C=O)[C@H]1C2             2.98
3    CC(C)[C@@H]1CC[C@@H](C)CC1=O             3.05

P = CC12CC[C@@H](C1)C(C)(C)C2=O (stereo in doubt)
Q = CC1(C)C2CCC(CN)C1C2 (configuration not stated)
query: I would appreciate it if you could say which entry, P or Q , has the lower logP value. State your choice using its label.
result: Q
(Q: 2.05, P: 3.17)

* * *

MEASUREMENT NAME: logP

>>> print(df.to_string())
                                   molecule  measurement_name  measured_result
0  CC1(C)C2CCC1(C)C(O)C2 (stereo unspecified)              logP             3.01
1                     CC(C)C12CCC(C)(CC1)O2              logP             2.97
2         C=C(C)[C@H]1CC[C@H](C)[C@@H](O)C1              logP             3.21
3  C=C(C)C1CCC2(C)OC2C1 (stereo unspecified)              logP              3.2
4                         Cc1ccc(C(C)C)cc1O              logP             3.49
5  CC(=O)OC1C[C@H](C)CCC1C(C)C (stereo partly specified)              logP                4

Provenance of the data: the SangsterLogP compilation
